- System: recombinant NL4-3 virus
- Experiment notes: HIV cell culture assay
- Assay type: cell-based
- Conditions: Human immunodeficiency virus 1, NL43, MT2
Assay readout: pEC50
Keep it numeric: pEC50 is minus log10 of the concentration in mol/L.

A selection of reference data follows.
{"Compound": "C=C(C)[C@@H]1CC[C@]2(CNCCCN3CCS(=O)(=O)CC3)CC[C@]3(C)[C@H](CC[C@@H]4[C@@]5(C)CCN(c6ccc(C(=O)O)nn6)C(C)(C)[C@@H]5CC[C@]43C)[C@@H]12", "Assayed target": "recombinant NL4-3 virus", "Endpoint value": 6.55}
{"Compound": "C=C(C)[C@@H]1CC[C@]2(CNCCCN3CCS(=O)(=O)CC3)CC[C@]3(C)[C@H](CC[C@@H]4[C@@]5(C)CCN(C(=O)CCC(C)(C)C(=O)O)C(C)(C)[C@@H]5CC[C@]43C)[C@@H]12", "Assayed target": "recombinant NL4-3 virus", "Endpoint value": 6.92}
{"Compound": "C=C(C)[C@@H]1CC[C@]2(CO)CC[C@]3(C)[C@H](CC[C@@H]4[C@@]5(C)CCN(S(=O)(=O)c6cccc(C(=O)O)c6)C(C)(C)C5CC[C@]43C)[C@@H]12 (stereo partly shown)", "Assayed target": "recombinant NL4-3 virus", "Endpoint value": 5.31}

Would you kindly look at the next entry?
Note to self: pEC50 recorded for `C=C(C)[C@@H]1CC[C@]2(CNCCCN3CCS(=O)(=O)CC3)CC[C@]3(C)[C@H](CC[C@@H]4[C@@]5(C)CCN(C(=O)/C=C/C(=O)O)C(C)(C)[C@@H]5CC[C@]43C)[C@@H]12` was 6.52

###

# pEC50 listing for each entry below
- Tested on: recombinant NL4-3 virus
- Experiment notes: HIV cell culture assay
- Type: cell-based
- Conditions: Human immunodeficiency virus 1, NL43, MT2
Keep it numeric: pEC50 is minus log10 of the concentration in mol/L.

{"Molecule": "C=C(C)[C@@H]1CC[C@]2(CNCCCN3CCS(=O)(=O)CC3)CC[C@]3(C)[C@H](CC[C@@H]4[C@@]5(C)CCN(c6ncc(C(N)=O)cn6)C(C)(C)[C@@H]5CC[C@]43C)[C@@H]12", "pEC50": 7.22}

Note to self: pEC50 recorded for `C=C(C)[C@@H]1CC[C@]2(CNCCCN3CCS(=O)(=O)CC3)CC[C@]3(C)[C@H](CC[C@@H]4[C@@]5(C)CCN(c6ccc(C(=O)O)c(F)c6)C(C)(C)[C@@H]5CC[C@]43C)[C@@H]12` was 7.70

Note to self: pEC50 recorded for `C=C(C)[C@@H]1CC[C@]2(CNCCCN3CCS(=O)(=O)CC3)CC[C@]3(C)[C@H](CC[C@@H]4[C@@]5(C)CCN(c6ccc(C(=O)O)cc6)C(C)(C)[C@@H]5CC[C@]43C)[C@@H]12` was 8.30

Note to self: pEC50 recorded for `C=C(C)[C@@H]1CC[C@]2(CNCCCN3CCS(=O)(=O)CC3)CC[C@]3(C)[C@H](CC[C@@H]4[C@@]5(C)CCN(c6ccc(C(N)=O)cn6)C(C)(C)[C@@H]5CC[C@]43C)[C@@H]12` was 6.40

Note to self: pEC50 recorded for `C=C(C)[C@@H]1CC[C@]2(CNCCCN3CCS(=O)(=O)CC3)CC[C@]3(C)[C@H](CC[C@@H]4[C@@]5(C)CCN(C(=O)Cc6cccc(CC(=O)O)c6)C(C)(C)[C@@H]5CC[C@]43C)[C@@H]12` was 6.52

Note to self: pEC50 recorded for `C=C(C)[C@@H]1CC[C@]2(CNCCCN3CCS(=O)(=O)CC3)CC[C@]3(C)[C@H](CC[C@@H]4[C@@]5(C)CCN(c6ccc(C#N)cn6)C(C)(C)[C@@H]5CC[C@]43C)[C@@H]12` was 6.12

Note to self: pEC50 recorded for `C=C(C)[C@@H]1CC[C@]2(NCCN3CCS(=O)(=O)CC3)CC[C@]3(C)[C@H](CC[C@@H]4[C@@]5(C)CCN(c6ncc(C(=O)O)cn6)C(C)(C)[C@@H]5CC[C@]43C)[C@@H]12` was 9.00

Note to self: pEC50 recorded for C=C(C)[C@@H]1CC[C@]2(CO)CC[C@]3(C)[C@H](CC[C@@H]4[C@@]5(C)CCN(C(=O)C(=O)O)C(C)(C)C5CC[C@]43C)[C@@H]12 (stereo partly drawn) was 5.40

Note to self: pEC50 recorded for `C=C(C)[C@@H]1CC[C@]2(CNCCCN3CCS(=O)(=O)CC3)CC[C@]3(C)[C@H](CC[C@@H]4[C@@]5(C)CCN(c6ncc(C(=O)O)s6)C(C)(C)[C@@H]5CC[C@]43C)[C@@H]12` was 8.40
